Cited source for all entries: the supplement of paper PMC10307832

This section presents compounds with their documented relative viability values.
Tested on: NCI-H2170
testDetails: relative viability (nuclei count vs DMSO), 5 days (fraction); higher = more cells survive
experimentalParameters: first compound 0.03162 µM
measurementLabel: relative viability

INSERT INTO measurements (compound, measurementlabel, measurement) VALUES
  ('Cc1cn(-c2cc(NC(=O)c3ccc(C)c(Nc4nccc(-c5cccnc5)n4)c3)cc(C(F)(F)F)c2)cn1 [Nilotinib] + COc1cc2c(Oc3ccc(NC(=O)C4(C(=O)Nc5ccc(F)cc5)CC4)cc3F)ccnc2cc1OCCCN1CCOCC1 [Foretinib] (partner 0.25 µM)', 'relative viability', 0.995),
  ('Cc1cn(-c2cc(NC(=O)c3ccc(C)c(Nc4nccc(-c5cccnc5)n4)c3)cc(C(F)(F)F)c2)cn1 [Nilotinib] + C[C@@H](Oc1cc(-c2cnn(C3CCNCC3)c2)cnc1N)c1c(Cl)ccc(F)c1Cl [Crizotinib] (partner 1 µM)', 'relative viability', 0.915),
  ('Cc1cn(-c2cc(NC(=O)c3ccc(C)c(Nc4nccc(-c5cccnc5)n4)c3)cc(C(F)(F)F)c2)cn1 [Nilotinib] + CC1(C)CCC(c2ccc(Cl)cc2)=C(CN2CCN(c3ccc(C(=O)NS(=O)(=O)c4ccc(N[C@H](CCN5CCOCC5)CSc5ccccc5)c(S(=O)(=O)C(F)(F)F)c4)cc3)CC2)C1 [Navitoclax] (partner 0.5 µM)', 'relative viability', 0.56),
  ('Cc1cn(-c2cc(NC(=O)c3ccc(C)c(Nc4nccc(-c5cccnc5)n4)c3)cc(C(F)(F)F)c2)cn1 [Nilotinib] + O=C(c1cc(Cc2n[nH]c(=O)c3ccccc23)ccc1F)N1CCN(C(=O)C2CC2)CC1 [Olaparib] (partner 8 µM)', 'relative viability', 0.574);

---

Test system: NCI-H522
testDetails: relative viability (nuclei count vs DMSO), 5 days (fraction); higher = more cells survive
experimentalParameters: first compound 0.253 µM
measurementLabel: relative viability

INSERT INTO results (compound, testedtarget, measurementlabel, measurement) VALUES
  ('Nc1cccc2c1CN(C1CCC(=O)NC1=O)C2=O (stereo not given) [Lenalidomide] + Nc1ncn([C@H]2C[C@H](O)[C@@H](CO)O2)c(=O)n1 [Decitabine] (partner 2 µM)', 'NCI-H522', 'relative viability', 0.759),
  ('Nc1cccc2c1CN(C1CCC(=O)NC1=O)C2=O (stereo not given) [Lenalidomide] + Cc1cc(Nc2cc(N3CCN(C)CC3)nc(Sc3ccc(NC(=O)C4CC4)cc3)n2)n[nH]1 [Tozasertib] (partner 0.1 µM)', 'NCI-H522', 'relative viability', 0.574),
  ('Nc1cccc2c1CN(C1CCC(=O)NC1=O)C2=O (stereo not given) [Lenalidomide] + Nc1nc2[nH]cc(CCc3ccc(C(=O)N[C@@H](CCC(=O)O)C(=O)O)cc3)c2c(=O)[nH]1 [Pemetrexed] (partner 0.2 µM)', 'NCI-H522', 'relative viability', 1.05),
  ('Nc1cccc2c1CN(C1CCC(=O)NC1=O)C2=O (stereo not given) [Lenalidomide] + CC(=O)c1c(C)c2cnc(Nc3ccc(N4CCNCC4)cn3)nc2n(C2CCCC2)c1=O [Palbociclib] (partner 0.5 µM)', 'NCI-H522', 'relative viability', 0.91),
  ('Nc1cccc2c1CN(C1CCC(=O)NC1=O)C2=O (stereo not given) [Lenalidomide] + Cc1nc(Nc2ncc(C(=O)Nc3c(C)cccc3Cl)s2)cc(N2CCN(CCO)CC2)n1 [Dasatinib] (partner 0.075 µM)', 'NCI-H522', 'relative viability', 1);

---

Test system: NCI-H23
testDetails: relative viability (nuclei count vs DMSO), 5 days (fraction); higher = more cells survive
experimentalParameters: first compound 0.2 µM
Binary call on relative viability with cut-off 0.8: strictly below means Criterion met, and equality or higher means Criterion not met.

INSERT INTO measurements (molecule, answerlabel) VALUES
  ('Cc1csc(=NC2CCCCC2)n1/N=C/c1ccc(O)c(O)c1O [MIM1] + CS(=O)(=O)CCNCc1ccc(-c2ccc3ncnc(Nc4ccc(OCc5cccc(F)c5)c(Cl)c4)c3c2)o1 [Lapatinib] (partner 2 µM)', 'Criterion not met'),
  ('Cc1csc(=NC2CCCCC2)n1/N=C/c1ccc(O)c(O)c1O [MIM1] + CC1(C)CCC(c2ccc(Cl)cc2)=C(CN2CCN(c3ccc(C(=O)NS(=O)(=O)c4ccc(N[C@H](CCN5CCOCC5)CSc5ccccc5)c(S(=O)(=O)C(F)(F)F)c4)cc3)CC2)C1 [Navitoclax] (partner 0.5 µM)', 'Criterion met'),
  ('Cc1csc(=NC2CCCCC2)n1/N=C/c1ccc(O)c(O)c1O [MIM1] + Cc1nc(Nc2ncc(C(=O)Nc3c(C)cccc3Cl)s2)cc(N2CCN(CCO)CC2)n1 [Dasatinib] (partner 0.075 µM)', 'Criterion not met'),
  ('Cc1csc(=NC2CCCCC2)n1/N=C/c1ccc(O)c(O)c1O [MIM1] + COc1cccc2cc(-c3nc([C@H]4CC[C@H](C(=O)O)CC4)n4ncnc(N)c34)[nH]c12 [OSI-027] (partner 0.5 µM)', 'Criterion met'),
  ('CCNC(=O)c1noc(-c2cc(C(C)C)c(O)cc2O)c1-c1ccc(CN2CCOCC2)cc1 [Luminespib] + Nc1ncn([C@H]2C[C@H](O)[C@@H](CO)O2)c(=O)n1 [Decitabine] (partner 2 µM)', 'Criterion met'),
  ('CCNC(=O)c1noc(-c2cc(C(C)C)c(O)cc2O)c1-c1ccc(CN2CCOCC2)cc1 [Luminespib] + COc1cccc2cc(-c3nc([C@H]4CC[C@H](C(=O)O)CC4)n4ncnc(N)c34)[nH]c12 [OSI-027] (partner 0.5 µM)', 'Criterion met'),
  ('Cc1csc(=NC2CCCCC2)n1/N=C/c1ccc(O)c(O)c1O [MIM1] + C[C@]1(O)C[C@@H](c2nc(-c3ccc4ccc(-c5ccccc5)nc4c3)c3c(N)nccn32)C1 [Linsitinib] (partner 1 µM)', 'Criterion met'),
  ('Cc1csc(=NC2CCCCC2)n1/N=C/c1ccc(O)c(O)c1O [MIM1] + CC(C)C[C@H](NC(=O)[C@H](Cc1ccccc1)NC(=O)c1cnccn1)B(O)O [Bortezomib] (partner 0.002 µM)', 'Criterion not met'),
  ('Cc1csc(=NC2CCCCC2)n1/N=C/c1ccc(O)c(O)c1O [MIM1] + NC(=O)Nc1cc(-c2cccc(F)c2)sc1C(=O)N[C@H]1CCCNC1 [AZD7762] (partner 0.2 µM)', 'Criterion met'),
  ('CN1CCN(CCOc2cc(OC3CCOCC3)c3c(Nc4c(Cl)ccc5c4OCO5)ncnc3c2)CC1 [Saracatinib] + CCNC(=O)c1noc(-c2cc(C(C)C)c(O)cc2O)c1-c1ccc(CN2CCOCC2)cc1 [Luminespib] (partner 0.01 µM)', 'Criterion met'),
  ('CCNC(=O)c1noc(-c2cc(C(C)C)c(O)cc2O)c1-c1ccc(CN2CCOCC2)cc1 [Luminespib] + NC(=O)Nc1cc(-c2cccc(F)c2)sc1C(=O)N[C@H]1CCCNC1 [AZD7762] (partner 0.2 µM)', 'Criterion met');

---

This section presents molecules with their documented relative viability values.
Tested on: NCI-H1975
testDetails: relative viability (nuclei count vs DMSO), 5 days (fraction); higher = more cells survive
experimentalParameters: first compound 0.06325 µM
measurementLabel: relative viability

INSERT INTO results (molecule, testedtarget, measurement) VALUES
  ('CCNC(=O)c1noc(-c2cc(C(C)C)c(O)cc2O)c1-c1ccc(CN2CCOCC2)cc1 [Luminespib] + C[C@]1(O)C[C@@H](c2nc(-c3ccc4ccc(-c5ccccc5)nc4c3)c3c(N)nccn32)C1 [Linsitinib] (partner 1 µM)', 'NCI-H1975', 0.156),
  ('CCNC(=O)c1noc(-c2cc(C(C)C)c(O)cc2O)c1-c1ccc(CN2CCOCC2)cc1 [Luminespib] + O=C(c1cc(Cc2n[nH]c(=O)c3ccccc23)ccc1F)N1CCN(C(=O)C2CC2)CC1 [Olaparib] (partner 8 µM)', 'NCI-H1975', 0.128),
  ('CCNC(=O)c1noc(-c2cc(C(C)C)c(O)cc2O)c1-c1ccc(CN2CCOCC2)cc1 [Luminespib] + C[C@@H](Oc1cc(-c2cnn(C3CCNCC3)c2)cnc1N)c1c(Cl)ccc(F)c1Cl [Crizotinib] (partner 1 µM)', 'NCI-H1975', 0.147),
  ('CCNC(=O)c1noc(-c2cc(C(C)C)c(O)cc2O)c1-c1ccc(CN2CCOCC2)cc1 [Luminespib] + Cc1cc(Nc2cc(N3CCN(C)CC3)nc(Sc3ccc(NC(=O)C4CC4)cc3)n2)n[nH]1 [Tozasertib] (partner 0.1 µM)', 'NCI-H1975', 0.1),
  ('CCNC(=O)c1noc(-c2cc(C(C)C)c(O)cc2O)c1-c1ccc(CN2CCOCC2)cc1 [Luminespib] + Nc1ncn([C@H]2C[C@H](O)[C@@H](CO)O2)c(=O)n1 [Decitabine] (partner 2 µM)', 'NCI-H1975', 0.127);
